Where do the numbers come from? From paper PMC6352943.

# Tested on: ACHN
# Assay Details: NCI 60 cell line single dose screen (SRB)
# Assay type: cell-based
# Experimental Context: Homo sapiens; ACHN (renal cancer), single dose 10^−5 M, 48 h; read-out: Growth inhibition percentage
Experimental Readout: inhibition at 10 µM

// Input: Cc1nn(-c2ccc(F)cc2)c2ncnc(N)c12 . Output its inhibition at 10 µM only.
0.98%

// Input: Cc1nn(-c2ccc(F)cc2)c2ncnc(NN)c12 . Output its inhibition at 10 µM only.
2.07%

// Input: Cc1nn(-c2ccc(F)cc2)c2ncnc(N3CCN(c4ccc(Cl)cc4)CC3)c12 . Output its inhibition at 10 µM only.
2.13%

// Input: Cc1nn(-c2ccc(F)cc2)c2ncnc(Cl)c12 . Output its inhibition at 10 µM only.
4.11%

// Input: Cc1nn(-c2ccc(F)cc2)c2nc(N)nc(N)c12 . Output its inhibition at 10 µM only.
-3.79%

// Input: Cc1nn(-c2ccc(F)cc2)c2ncnc(N3CCOCC3)c12 . Output its inhibition at 10 µM only.
-10.3%

// Input: Cc1nn(-c2ccc(F)cc2)c2nc[nH]c(=O)c12 . Output its inhibition at 10 µM only.
-4.68%
